# assayed system: human PDE4B1 (Homo sapiens (Human), UniProt Q07343)
# Sequence (Q07343 whole entry): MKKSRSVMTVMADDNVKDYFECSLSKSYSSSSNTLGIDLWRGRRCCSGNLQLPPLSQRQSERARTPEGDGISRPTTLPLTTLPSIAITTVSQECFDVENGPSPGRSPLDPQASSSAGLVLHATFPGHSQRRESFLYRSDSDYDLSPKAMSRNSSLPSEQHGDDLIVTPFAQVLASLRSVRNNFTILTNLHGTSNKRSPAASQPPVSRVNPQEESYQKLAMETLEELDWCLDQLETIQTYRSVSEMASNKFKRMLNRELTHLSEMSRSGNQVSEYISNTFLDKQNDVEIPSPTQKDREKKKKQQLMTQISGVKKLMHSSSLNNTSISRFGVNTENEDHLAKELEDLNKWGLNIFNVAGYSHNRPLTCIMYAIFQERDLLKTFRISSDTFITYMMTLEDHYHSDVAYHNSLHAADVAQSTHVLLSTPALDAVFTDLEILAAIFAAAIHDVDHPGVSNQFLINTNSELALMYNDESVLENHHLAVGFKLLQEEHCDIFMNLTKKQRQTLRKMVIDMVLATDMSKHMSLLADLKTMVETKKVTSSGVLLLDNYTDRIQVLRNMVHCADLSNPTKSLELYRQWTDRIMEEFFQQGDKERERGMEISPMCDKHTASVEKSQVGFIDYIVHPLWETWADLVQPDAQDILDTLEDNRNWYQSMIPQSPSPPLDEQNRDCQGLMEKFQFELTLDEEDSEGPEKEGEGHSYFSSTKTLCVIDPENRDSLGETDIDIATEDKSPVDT
# test description: cAMP HTRF assay to determine the activity of hPDE4B1
# Type: biochemical
# assay context: IC50 inhibition of PDE4B; human recombinant PDE4B1, cAMP HTRF assay
observation type: IC50

{"columns": ["smiles structure", "assayed system", "endpoint value"],
 "data": [
  ["NC(=O)c1ccc2c(c1)N(c1ncc(-c3ccccc3F)cn1)CC21CC1", "human PDE4B1 (Homo sapiens (Human), UniProt Q07343)", "0.1 to 1 µM"],
  ["COC1CCN(C(=O)c2ccc3c(c2)N(c2ncc(-c4ccccc4F)cn2)CC32CC2)CC1", "human PDE4B1 (Homo sapiens (Human), UniProt Q07343)", "0.1 to 1 µM"],
  ["NC(=O)c1ccccc1-c1cnc(N2CC3(CC3)c3ccc(C(=O)N4CCOCC4)cc32)nc1", "human PDE4B1 (Homo sapiens (Human), UniProt Q07343)", "0.1 to 1 µM"],
  ["O=C(c1ccc2c(c1)N(c1ncc(-c3sccc3Cl)cn1)CC21CC1)N1CCOCC1", "human PDE4B1 (Homo sapiens (Human), UniProt Q07343)", "0.1 to 1 µM"],
  ["COc1cccc(-c2cnc(N3CC4(CC4)c4ccc(C(=O)N(C)CCO)cc43)nc2)n1", "human PDE4B1 (Homo sapiens (Human), UniProt Q07343)", "< 0.1 µM"],
  ["CN(CC1OCCO1)C(=O)c1ccc2c(c1)N(c1ncc(-c3ccccc3F)cn1)CC21CC1", "human PDE4B1 (Homo sapiens (Human), UniProt Q07343)", "0.1 to 1 µM"],
  ["Cc1ncccc1-c1cnc(N2CC3(CC3)c3ccc(C(=O)N4CCOCC4)cc32)nc1", "human PDE4B1 (Homo sapiens (Human), UniProt Q07343)", "< 0.1 µM"],
  ["Cc1ccccc1-c1cnc(N2CC3(CC3)c3ccc(C(=O)N4CCOCC4)cc32)nc1", "human PDE4B1 (Homo sapiens (Human), UniProt Q07343)", "< 0.1 µM"],
  ["O=C(c1ccc2c(c1)N(c1ncc(-c3cc(C(F)(F)F)ccc3F)cn1)CC21CC1)N1CCOCC1", "human PDE4B1 (Homo sapiens (Human), UniProt Q07343)", "< 0.1 µM"],
  ["CC(C)(O)c1ccc(-c2cnc(N3CC4(CC4)c4ccc(C(=O)N5CCOCC5)cc43)nc2)s1", "human PDE4B1 (Homo sapiens (Human), UniProt Q07343)", "< 0.1 µM"],
  ["O=C(c1ccc2c(c1)N(c1ncc(-c3cc(OC(F)(F)F)ccc3F)cn1)CC21CC1)N1CCNCC1", "human PDE4B1 (Homo sapiens (Human), UniProt Q07343)", "< 0.1 µM"],
  ["O=C(c1ccc2c(n1)N(c1ncc(-c3ccccc3F)cn1)CC21CC1)N1CCOCC1", "human PDE4B1 (Homo sapiens (Human), UniProt Q07343)", "< 0.1 µM"],
  ["NC(=O)c1cccc(-c2cnc(N3CC4(CC4)c4ccc(C(=O)N5CC[C@@H](N)C5)cc43)nc2)c1", "human PDE4B1 (Homo sapiens (Human), UniProt Q07343)", "< 0.1 µM"],
  ["CN(C)C(=O)c1ccc2c(c1)N(c1ncc(-c3ccccc3)cn1)CC21CC1", "human PDE4B1 (Homo sapiens (Human), UniProt Q07343)", "< 0.1 µM"],
  ["Cc1ccnc(-c2cnc(N3CC4(CC4)c4ccc(C(=O)N(C)CCO)cc43)nc2)c1", "human PDE4B1 (Homo sapiens (Human), UniProt Q07343)", "< 0.1 µM"],
  ["NC(=O)c1cccc(-c2cnc(N3CC4(CC4)c4ccc(C(=O)N5CCOCC5)cc43)nc2)c1", "human PDE4B1 (Homo sapiens (Human), UniProt Q07343)", "< 0.1 µM"],
  ["O=C(c1ccc2c(c1)N(c1ncc(Cc3ccccc3F)cn1)CC21CC1)N1CCOCC1", "human PDE4B1 (Homo sapiens (Human), UniProt Q07343)", "0.1 to 1 µM"],
  ["O=C(c1ccc2c(c1)N(c1ncc(-c3ccc(F)s3)cn1)CC21CC1)N1CCOCC1", "human PDE4B1 (Homo sapiens (Human), UniProt Q07343)", "< 0.1 µM"],
  ["COc1ccc(C(N)=O)c(-c2cnc(N3CC4(CC4)c4ccc(C(=O)N5CCOCC5)cc43)nc2)c1", "human PDE4B1 (Homo sapiens (Human), UniProt Q07343)", "0.1 to 1 µM"],
  ["O=C(c1ccc2c(c1)N(c1ncc(-c3cccc(F)c3F)cn1)CC21CC1)N1CCOCC1", "human PDE4B1 (Homo sapiens (Human), UniProt Q07343)", "< 0.1 µM"]
]}
